Value source: paper PMC5852461

studySystem: T1, TatBC–His6 complex (GDN-solubilized, purified) (E. coli, UniProt P69425 1-171; P69423 1-258)
T1 sequence (looked up) 1: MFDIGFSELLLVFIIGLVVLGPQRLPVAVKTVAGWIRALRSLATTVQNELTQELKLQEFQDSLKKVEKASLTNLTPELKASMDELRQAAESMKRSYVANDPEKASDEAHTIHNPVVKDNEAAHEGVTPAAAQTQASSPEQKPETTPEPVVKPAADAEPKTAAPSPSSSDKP
T1 sequence (looked up) 2: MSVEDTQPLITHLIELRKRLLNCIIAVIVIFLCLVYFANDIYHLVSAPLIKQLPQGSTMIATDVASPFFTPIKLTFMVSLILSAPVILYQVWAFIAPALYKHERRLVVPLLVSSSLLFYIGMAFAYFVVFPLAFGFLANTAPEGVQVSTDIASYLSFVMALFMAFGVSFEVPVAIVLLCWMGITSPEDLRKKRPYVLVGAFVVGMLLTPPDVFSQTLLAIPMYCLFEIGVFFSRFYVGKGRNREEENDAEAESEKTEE
assayMethodText: ITC; TatBC–His6 (45 μM) in the cell; titrant 150 μM HiPIP or 85 μM TorA signal peptide; 25 °C; 20 mM MOPS-NaOH, 200 mM NaCl, 1 mM EDTA, 0.01% GDN, pH 8; one-site model; molar ratio counted per TatC–His6
measurementConditions: both partners purified
attributeMeasured: Kd

Entry under review: SRRRFLAQLGGLTVAGMLGPSLLTPRR [TorA signal peptide (residues 10–36)] . Reported Kd? ~500 nM
